Provenance of the data: PubChem BioAssay (NCI)

- assay details: NCI Yeast Anticancer Drug Screen. Data for the rad14 strain (AID 159);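 further: 0% = growth of vehicle-treated control cultures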
- condition details: S. cerevisiae rad14 strain growth inhibition; at 11.0 µM
The panel holds about 79,000 compounds, 15% with a hit somewhere; the sample as a whole holds those more often. Activity calls are given as the source filed them. No stated cut-off is given here; in the data, active means growth inhibition above about 70%; inactive means the rest.
A correct response names exactly one class from yes (1) (active), no (0) (inactive)

Would you please look over these solved cases?
> print(dat)
                    structure.smiles.string  assigned.label
1                c1ccc2[nH]c(-c3cscn3)nc2c1          no (0)
2           CCCC/C=C/C(C)(C(=O)OCC)C(=O)OCC          no (0)
3  COc1ccc([N+](=O)[O-])c2c(NCCCN(C)C)c3ccccc3nc12          no (0)
4  C[C@@](O)(/C=C/[C@H]1CC=CC(=O)O1)[C@@H](C[C@@H](O)\C=C/C=C\C=C\CO)OP(=O)(O)O          no (0)
5              S=C1SCN(C2CCCCC2)CN1C1CCCCC1          no (0)
6            O=C1C=C(Cl)C(=O)N1c1cccc(Cl)c1         yes (1)

Please find the next compound below.
## Input Record request — test call for CCN(CC)CCNc1ccc2ncn3c4cc(OC)c(OC)c(=O)c4c(O)c1c23
## Output no (0)
